Test System: PDGFRβ (Rattus norvegicus (Rat))
Sequence (Q05030 32-1097): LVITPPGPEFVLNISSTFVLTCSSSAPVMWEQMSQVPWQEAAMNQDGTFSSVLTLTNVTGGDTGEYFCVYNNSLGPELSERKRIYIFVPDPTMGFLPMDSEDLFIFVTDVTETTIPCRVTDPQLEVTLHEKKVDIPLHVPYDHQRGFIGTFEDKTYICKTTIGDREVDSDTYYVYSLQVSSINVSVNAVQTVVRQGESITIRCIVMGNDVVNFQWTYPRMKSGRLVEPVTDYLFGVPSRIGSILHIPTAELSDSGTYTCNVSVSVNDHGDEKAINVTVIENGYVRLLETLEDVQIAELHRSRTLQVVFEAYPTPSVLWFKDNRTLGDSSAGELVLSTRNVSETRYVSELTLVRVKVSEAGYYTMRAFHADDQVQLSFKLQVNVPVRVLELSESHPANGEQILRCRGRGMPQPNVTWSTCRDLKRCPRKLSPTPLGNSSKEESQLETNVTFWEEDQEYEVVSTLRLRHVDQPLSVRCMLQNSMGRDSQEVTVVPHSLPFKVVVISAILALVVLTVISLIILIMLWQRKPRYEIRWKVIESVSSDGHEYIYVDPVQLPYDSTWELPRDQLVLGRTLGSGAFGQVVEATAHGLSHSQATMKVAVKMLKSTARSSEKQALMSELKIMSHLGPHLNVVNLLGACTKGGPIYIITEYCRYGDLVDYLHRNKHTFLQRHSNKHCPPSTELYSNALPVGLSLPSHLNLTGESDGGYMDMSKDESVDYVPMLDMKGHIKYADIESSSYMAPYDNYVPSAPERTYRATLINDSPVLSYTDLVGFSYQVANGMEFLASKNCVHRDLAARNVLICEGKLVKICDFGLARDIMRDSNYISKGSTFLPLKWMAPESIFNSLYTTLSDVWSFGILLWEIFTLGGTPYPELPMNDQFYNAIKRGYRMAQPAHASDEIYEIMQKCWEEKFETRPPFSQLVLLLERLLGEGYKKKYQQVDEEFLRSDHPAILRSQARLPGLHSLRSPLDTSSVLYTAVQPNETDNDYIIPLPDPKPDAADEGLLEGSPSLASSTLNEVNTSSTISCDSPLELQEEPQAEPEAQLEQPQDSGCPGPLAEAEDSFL
Assay Notes: PDGFRβ Cellular Assay (PDGFRb P-Y751 HTRF in A10 cells stimulated with PDGF-BB)
Assay type: cell-based
Stated Conditions: read-out: PDGFR Cellular IC50
pIC50: −log10 of the molar value.
Assign classes using reported pIC50 values and the ranges band 1: < 7; band 2: ≥ 7 and < 8; band 3: ≥ 8, please.

Compound: COCCn1cc(-c2cn3ncc(C(=O)Nc4cc(C(=O)NCCN5CC6(CCC6)C5)cnc4C)c3s2)cn1
Test System: PDGFRβ (Rattus norvegicus (Rat))
Group: band 1
--
Compound: Cc1ncc(NC(=O)[C@@H]2C[C@H](C)CN2C)cc1NC(=O)c1cnn2cc(-c3cccnc3O)sc12
Test System: PDGFRβ (Rattus norvegicus (Rat))
Group: band 2
--
Compound: Cc1cnn(C)c1-c1cn2ncc(C(=O)Nc3cc(NC(=O)CN4CC(C)(C)C4)cnc3C)c2s1
Test System: PDGFRβ (Rattus norvegicus (Rat))
Group: band 3
--
Compound: Cc1ncc(NC(=O)C(C)N2CCCCCC2)cc1NC(=O)c1cnn2cc(-c3cnn(C)c3)sc12 (centres unmarked)
Test System: PDGFRβ (Rattus norvegicus (Rat))
Group: band 3
--
Compound: Cc1ncc(NC(=O)C[C@@H]2CCCCN2C(C)C)cc1NC(=O)c1cnn2cc(-c3cnn(C)c3)sc12
Test System: PDGFRβ (Rattus norvegicus (Rat))
Group: band 1
--
Compound: COc1ncccc1-c1cn2ncc(C(=O)Nc3cc(NC(=O)CN4CCCC4(C)C)cnc3C)c2s1
Test System: PDGFRβ (Rattus norvegicus (Rat))
Group: band 3
--
Compound: Cc1ncc(NC(=O)CN2CCCC3(COC3)C2)cc1NC(=O)c1cnn2cc(-c3cnn(C)c3)sc12
Test System: PDGFRβ (Rattus norvegicus (Rat))
Group: band 2
--
Compound: Cc1ncc(NC(=O)CN2C[C@H](C)O[C@@H](C)C2)cc1NC(=O)c1cnn2cc(-c3cc[nH]n3)sc12 (relative stereo)
Test System: PDGFRβ (Rattus norvegicus (Rat))
Group: band 2
--
Compound: Cc1ncc(C(=O)NCCN2CCCC2(C)C)cc1NC(=O)c1cnn2cc(-c3cnn(CCO)c3)sc12
Test System: PDGFRβ (Rattus norvegicus (Rat))
Group: band 1
--
Compound: Cc1ncc(NC(=O)CN2CCC[C@@H]2C)cc1NC(=O)c1cnn2cc(-c3cnn4c3CCC4)sc12
Test System: PDGFRβ (Rattus norvegicus (Rat))
Group: band 3
--
Compound: Cc1cc(C(=O)NCCN2CCCC2(C)C)sc1NC(=O)c1cnn2cc(-c3ccncc3)sc12
Test System: PDGFRβ (Rattus norvegicus (Rat))
Group: band 1
--
Compound: Cc1ncc(C(=O)NCCN2CCCC23CCC3)cc1NC(=O)c1cnn2cc(-c3cnn4c3COCC4)sc12
Test System: PDGFRβ (Rattus norvegicus (Rat))
Group: band 3
--
Compound: Cc1ncc(NC(=O)CN2CCS(=O)(=O)CC2)cc1NC(=O)c1cnn2cc(-c3cnn(C)c3)sc12
Test System: PDGFRβ (Rattus norvegicus (Rat))
Group: band 1
--
Compound: COCCn1cc(-c2cn3ncc(C(=O)Nc4cc(NC(=O)CN5CCCC5)cnc4C)c3s2)cn1
Test System: PDGFRβ (Rattus norvegicus (Rat))
Group: band 2
--
Compound: Cc1ncc(C(=O)NCCN2CCCC2(C)C)cc1NC(=O)c1cnn2cc(-c3cnn(Cc4cc(O)no4)c3)sc12
Test System: PDGFRβ (Rattus norvegicus (Rat))
Group: band 1
--
Compound: Cc1ncc(NC(=O)CN2CCCC2(C)C)cc1NC(=O)c1cnn2cc(-n3ncc4cccnc43)sc12
Test System: PDGFRβ (Rattus norvegicus (Rat))
Group: band 3
--
Compound: Cc1ncc(NC(=O)CN2CCCC2)cc1NC(=O)c1cnn2cc(-c3cccnc3O)sc12
Test System: PDGFRβ (Rattus norvegicus (Rat))
Group: band 1
--
Compound: COc1ncccc1-c1cn2ncc(C(=O)Nc3cc(NC(=O)C[C@@H]4CCCN4C(C)C)cnc3C)c2s1
Test System: PDGFRβ (Rattus norvegicus (Rat))
Group: band 3
--
Compound: Cc1ncc(NC(=O)CCCN2CCC[C@@H]2C)cc1NC(=O)c1cnn2cc(-c3cnn(C)c3)sc12
Test System: PDGFRβ (Rattus norvegicus (Rat))
Group: band 1
--
Compound: COCCn1cc(-c2cn3ncc(C(=O)Nc4cc(NC(=O)CN5CC6CCC5CC6)cnc4C)c3s2)cn1
Test System: PDGFRβ (Rattus norvegicus (Rat))
Group: band 3
--
Compound: Cc1ncc(NC(=O)CN2Cc3cccnc3C2)cc1NC(=O)c1cnn2cc(-c3cnn(C)c3)sc12
Test System: PDGFRβ (Rattus norvegicus (Rat))
Group: band 2
--
Compound: Cc1ncc(C(=O)NCCN2CC3CC(C3)C2)cc1NC(=O)c1cnn2cc(-c3cnn(C)c3)sc12
Test System: PDGFRβ (Rattus norvegicus (Rat))
Group: band 2
